Test: Retention time of the compound using 2 to 90% MeOH in H2O with 0.1% FA over 15 mins by RP-LC method
Type: physicochemical
Conditions: 0.25 h
Starred links: 1 amine or outer side, 2 acyl side, 3 side chain; linkers in the order of their positions; H or OH if unused. Non-standard residues stand in square brackets, D forms with d. Residues, ends and D or L forms follow the SMILES beside them. azaTyr = O=C(N(Cc1ccc(O)cc1)N[*:1])[*:2]; X1 = O=C(N(Cc1ccc(O)c(O)c1)N[*:1])[*:2]; azaPhe = O=C(N(Cc1ccccc1)N[*:1])[*:2]; X3 = CC[C@H](C)N(N[*:1])C(=O)[*:2]; X2 = O=C(O)CCN(N[*:1])C(=O)[*:2]; AzaAla = CN(N[*:1])C(=O)[*:2]; azaGly = NNC(=O)O
What Retention_time was measured for each of the following?
Give the value, in units of min, as a plain number.

Briefly, Retention_time measured for CC[C@H](C)[C@H](NC(=O)[C@H](CC(=O)O)NC(C)=O)C(=O)NN(Cc1ccc(O)cc1)C(=O)N[C@@H](CCC(=O)O)C(=O)N[C@H](C(N)=O)[C@@H](C)O (Ac-DI[azaTyr]ET-NH2) : 9.95

The compound listed as CC[C@H](C)[C@H](NC(=O)[C@H](CC(=O)O)NC(C)=O)C(=O)N[C@@H](Cc1ccc(O)cc1)C(=O)NN(CCC(=O)O)C(=O)N[C@H](C(N)=O)[C@@H](C)O (Ac-DIY[X2]T-NH2) shows Retention_time equal to 9.61

Lab note: measured Retention_time of CC[C@H](C)N(NC(=O)[C@H](CC(=O)O)NC(C)=O)C(=O)N[C@@H](Cc1ccc(O)cc1)C(=O)N[C@@H](CCC(=O)O)C(=O)N[C@H](C(N)=O)[C@@H](C)O (Ac-D[X3]YET-NH2) was 6.97

Documented Retention_time of CC(=O)N[C@@H](CC(=O)O)C(=O)NNC(=O)N[C@@H](Cc1ccc(O)cc1)C(=O)N[C@@H](CCC(=O)O)C(=O)N[C@H](C(N)=O)[C@@H](C)O (Ac-D[azaGly]YET-NH2) : 6.99

Sample CC[C@H](C)[C@H](NC(=O)[C@H](CC(=O)O)NC(C)=O)C(=O)NN(Cc1ccc(O)c(O)c1)C(=O)N[C@@H](CCC(=O)O)C(=O)N[C@H](C(N)=O)[C@@H](C)O (Ac-DI[X1]ET-NH2) ; Retention_time observed: 8.9

Record summary for CC(=O)N[C@@H](CC(=O)O)C(=O)NN(C)C(=O)N[C@@H](Cc1ccc(O)cc1)C(=O)N[C@@H](CCC(=O)O)C(=O)N[C@H](C(N)=O)[C@@H](C)O (Ac-D[AzaAla]YET-NH2) : reported Retention_time = 7.42

CC[C@H](C)[C@H](NC(=O)[C@H](CC(=O)O)NC(C)=O)C(=O)NN(Cc1ccccc1)C(=O)N[C@@H](CCC(=O)O)C(=O)N[C@H](C(N)=O)[C@@H](C)O (Ac-DI[azaPhe]ET-NH2) yielded Retention_time of 11.76
